Tested on: primary human hepatic stellate cells (donor 1)
Test: scaled lipid accumulation score (0 = DMSO-like, 1 = nortriptyline-like); higher = stronger HSC inactivation (lipid re-accumulation), active = hit call of the paper
Details: library stock concentration: 80 uM; 48 h
Hit rate of the full screen: of about 5,800 compounds, about 620 (11%) showed activity. Only a selection was taken, and actives are over-represented in it overall.
Reported scaled lipid accumulation score values follow for various compounds

CCOc1cc2ncc(C#N)c(Nc3ccc(F)c(Cl)c3)c2cc1NC(=O)/C=C/CN(C)C; 0.071 (inactive)

Sample O=S(=O)(c1cccc2c(I)cccc12)N1CCCNCC1 — what was its scaled lipid accumulation score?
≤ -0.001 (inactive)

Sample C=CC(=O)Nc1cccc(Oc2nc(Nc3ccc(N4CCN(C)CC4)cc3OC)ncc2Cl)c1 — what was its scaled lipid accumulation score?
≤ 0 (inactive)

Sample CCCS(=O)(=O)Nc1ccc(F)c(C(=O)c2c[nH]c3ncc(Cl)cc23)c1F — what was its scaled lipid accumulation score?
≤ 0 (inactive)

Sample O=C(O)C(Cc1c[nH]c2ccccc12)N1C(=O)c2ccccc2C1=O (centres undefined) — what was its scaled lipid accumulation score?
≤ 0 (inactive)

Sample C[C@]1(c2nc3c(C(N)=O)cccc3[nH]2)CCCN1 [Veliparib] — what was its scaled lipid accumulation score?
0.0075 (inactive)

Sample Nc1cccc2c1CN(C1CCC(=O)NC1=O)C2=O (centres undefined) [Lenalidomide] — what was its scaled lipid accumulation score?
0.004 (inactive)

Sample Cc1ccc(-c2ccc3c(ccc4sc5c(c43)NC[C@@H](C)NC5=O)n2)cn1 — what was its scaled lipid accumulation score?
≤ -0.001 (inactive)

// data source = the supplement of paper PMC9135407
